System: U251 CNS
methodDescription: NCI-60 one-dose screen, 48 h
measurementParameters: 10 µM unless noted
The panel holds about 83,000 compounds, 20% with a hit somewhere; the sample as a whole holds those more often. The source made the active and inactive calls. The calls were made as follows: active = growth percent below 10; inactive = the rest.
I would appreciate it if you answered using one of these outcomes: y (active), n (inactive)

Sample answers from the record:
# lookup: test call for CCCCCCCCc1cccc(CC(=O)Nc2ccc(C)cc2C(=O)O)c1
n

How did this test come out for CCCCNc1ccc2c3c(cccc13)C(=O)N(NCC(O)COc1ccc3c(C)cc(=O)oc3c1)C2=O (centres undefined) ?
n

Test call for this compound, please: O=C(Nc1nc2ccc([N+](=O)[O-])cc2s1)Nc1ccc(Cl)cc1Cl
n

Continuing:
State the result this test recorded for CC(=O)Nc1ccc(S(=O)(=O)Nc2ccc(-c3ccc4c(c3)NC(=O)/C4=C\c3ccc[nH]3)cc2)cc1 .
n

I'd appreciate the recorded outcome for COc1ccc(NC(=O)NN2C(=O)c3ccccc3N(C)C2c2ccc(OC)cc2)cc1 (centres undefined) from this test.
n

How did this test come out for COc1ccc(S(=O)(=O)Nc2ccc(-c3ccc4c(c3)NC(=O)/C4=C\c3ccc[nH]3)cc2)cc1OC ?
y

Any idea what this test logged for C[C@@H](Nc1c(C#N)cnc2ccc(-c3cnc4[nH]ncc4c3)cc12)c1ccccc1 ?
n
